Recorded max response, one value per entry.
- Measurement Description: qHTS assay for small molecule agonists of retinoid X receptor alpha signaling (AID 588544)
- Condition Parameters: HEK293T RXRa-UAS-bla, beta-lactamase reporter, 18 h; 530 nm emission
Records with an inconclusive call do not appear.
Give a bare numeral; the unit % is implied.

Use the examples below as a reference point.
{"Compound": "CC(=O)OC(C(=O)c1ccccc1)c1ccccc1 (configuration not stated)", "Measured": -6.96}
{"Compound": "c1ccc(COCc2ccccc2)cc1", "Measured": -5.39}
{"Compound": "C=CC1CO1 (configuration not stated)", "Measured": -16.9}
{"Compound": "C[Si](C)(C)Cl", "Measured": 8.09}
{"Compound": "O=C1OC(=O)c2ccccc21", "Measured": -8.02}

Challenge: So what's the measured max response for this one? `Cc1cccnc1`
Response given: 9.82

Challenge: max response lookup needed for `Oc1ccc2c(c1)OCO2` , thanks.
Response given: -4.36

###

activity change, negative = inhibition values by entry
- Measurement Description: NFAT Signaling Pathway (AID 444);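 also: carbachol stimulus at about its EC50 of 1 µM final; % is scaled to controls: 0 for no effect and ±100 for the full control effect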
- Condition Parameters: Jurkat NFAT-bla M1, carbachol, beta-lactamase ratio, 5 h; at 7.69 µM (top of the series) unless noted
- Method: NCGC Assay Overview: The nuclear factor of activated T cells (NFAT) family of transcription factors has been found primarily in most immune system cells and some other non-immune cells. NFAT plays the immunomodulatory role, primarily in T-cell activation and differentiation. […] NCGC Assay Protocol Summary: The cells were prepared in RPMI 1640 medium containing 0.1% dialyzed FBS and 25 mM HEPES at 1.6 x 10^6cell/ml. […] The %Activity was determined from the ratio of 460nm/530nm. […]
Results filed as inconclusive are left out. Active and inactive are the calls of the source. Calls come from the whole dose curve; as a rule, active = well fitted curve in either direction with a large enough effect (not every such curve was filed as active); inconclusive = small, poorly fitted or top-dose-only effect, or another doubt; inactive = flat fitted curve, though single readings scatter.

{"Chemical String": "O=C(O)C(Cc1ccccc1-c1ccccc1)C(=O)O", "Measured": "3.57% (inactive)"}
{"Chemical String": "COc1cc2nncc(SCc3ccc(Cl)c(Cl)c3)c2cc1OC", "Measured": "1.06% (inactive)"}
{"Chemical String": "O=C(O)CC1(CC(=O)O)Nc2ccccc2SC1=O", "Measured": "5.68% (inactive)"}
{"Chemical String": "[Cu].[NH-][C@H](CC(=O)O)C(=O)O.[NH-][C@H](CC(=O)O)C(=O)O", "Measured": "8.79% (inactive)"}
{"Chemical String": "COc1ccc2[nH]c3cc4c(=O)c5cc(OC)ccc5[nH]c4cc3c(=O)c2c1", "Measured": "-1.64% (inactive)"}
{"Chemical String": "Cn1c([N+](=O)[O-])cnc1CN1CCN(CCO)CC1", "Measured": "2.86% (inactive)"}
{"Chemical String": "Nc1cc(C(=O)O)[nH]c(=O)n1", "Measured": "8.92% (inactive)"}
{"Chemical String": "O=C(N[C@@]1(C(=O)O)C[C@@H]1c1ccccc1)c1ccccc1", "Measured": "18.8% (inactive)"}

Challenge: Field request: activity change, negative = inhibition | item: `O=C(O)CSCc1cccc2ccccc12`
Response given: 16.3% (inactive)

Challenge: Any idea what its activity change, negative = inhibition is? The compound is `O=C(O)C[C@H](Cc1ccccc1)C(=O)O`
Response given: 2.62% (inactive)

Challenge: Consider the compound `CC(=O)[C@H](C(=N)C#N)C(=O)Nc1ccccc1` and give its measured activity change, negative = inhibition.
Response given: -3.12% (inactive)

Challenge: GET /values?readout=activity change, negative = inhibition&item= `Nc1nc(N)[n+]([O-])c(N)c1NCO`
Response given: 9.37% (inactive)

Challenge: activity change, negative = inhibition lookup needed for `c1ccc2sc(SCN(C3CCCCC3)C3CCCCC3)nc2c1` , thanks.
Response given: -7.96% (inactive)

Challenge: Would you kindly share the measured activity change, negative = inhibition for `NCCNC[C@H](O)CO` ?
Response given: 7.58% (inactive)

Challenge: I am curious: what activity change, negative = inhibition value has been reported for `O=C(O)[C@H](Cc1cc(I)c(O)c(I)c1)C1CCCCC1` ?
Response given: 1.46% (inactive)

Challenge: For `O=[N+]([O-])c1ccc2c(c1)c(S(=O)(=O)O)cc1nonc12` , what is its reported activity change, negative = inhibition?
Response given: 6.23% (inactive)

Challenge: Endpoint output: activity change, negative = inhibition of `CC1=CC(=O)CC(C)(C)[C@]1(O)/C=C\C(C)=C\C(=O)O` . Value?
Response given: -29.1% (inactive)

Challenge: Which activity change, negative = inhibition reading was recorded for the compound `c1ccc(CCc2cccnc2)nc1` ?
Response given: 14.1% (inactive)

Challenge: Quick check: activity change, negative = inhibition of `CC(C)CN(CC#N)CC(C)C` ?
Response given: 12.7% (inactive)

Challenge: Data request, read-out activity change, negative = inhibition, for `c1ccc2nc(CC[C@@H]3CCCCN3)ccc2c1`
Response given: -3.97% (inactive)

###

- Measurement Description: qHTS assay for small molecule disruptors of the mitochondrial membrane potential - 1 hr assay (AID 651754); also: nearly all actives have a fitted effect of over 35% in size
- Condition Parameters: series mostly up to 92.2 µM
Inconclusive results are not listed. The source made the active and inactive calls. Calls follow the shape of the full dose curve.
Pick from active, inactive when you respond.

Examples from the recorded data:
{"Compound": "NC(=O)Nc1nc2ccccc2[nH]1", "Class Label": "inactive"}
{"Compound": "C=C1CC[C@H](O)C/C1=C/C=C1\\CCC[C@]2(C)[C@@H]([C@H](C)CCCC(C)C)CC[C@@H]12", "Class Label": "inactive"}
{"Compound": "CCCCOC(=O)COc1ccc(Cl)cc1Cl", "Class Label": "inactive"}
{"Compound": "c1ccc2ncccc2c1", "Class Label": "inactive"}
{"Compound": "c1c[nH]cn1", "Class Label": "inactive"}
{"Compound": "O=[N+]([O-])c1cc(Cl)c(Cl)c(Cl)c1Cl", "Class Label": "inactive"}
{"Compound": "Cc1ccc(O)c(N)c1", "Class Label": "active"}
{"Compound": "N=C1C=CC(=C(c2ccc(N)cc2)c2ccc(N)cc2)C=C1", "Class Label": "active"}

Challenge: Dear all, I need the recorded test outcome for C=CC1CO1 (centres undefined) , thank you.
Response given: inactive

Challenge: Lab log entry: `Brc1cc(Br)c(Oc2cc(Br)c(Br)cc2Br)cc1Br` — outcome as called in the assay?
Response given: inactive

Challenge: Dear all, I need the recorded test outcome for `Nc1ccc2c(c1)C(=O)c1ccccc1C2=O` , thank you.
Response given: active

Challenge: So what was the verdict on `Nc1ccc(N)c(Cl)c1` in this test?
Response given: active

Challenge: Which result was noted for this compound in the test: `C/C=C1/C(=O)C[C@H]2[C@@H]3CCC4=CC(=O)CC[C@]4(C)[C@H]3CC[C@]12C`
Response given: inactive

Challenge: Hi, sorry to bother you, what did the test record for `Cc1cccnc1` ?
Response given: inactive

###

- Measurement Description: AP1 Signaling Pathway (AID 357);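 also: ME-180 reporter cells stimulated with EGF at its EC50 level; % is scaled to controls: 0 for no effect and ±100 for the full control effect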
- Condition Parameters: ME-180 (cervical carcinoma) AP-1-bla reporter, EGF-induced, beta-lactamase ratio, 5 h; at 7.69 µM (top of the series) unless noted
- Description: NCGC Assay Overview: Activator protein-1 (AP-1), a transcription factor, plays an important role in tumor genesis by regulating genes involved in cell proliferation, differentiation, apoptosis, and angiogenesis. AP-1 activity is induced by a complex network of signaling pathways that involves extracellular signals, such as growth factors. […] Library compounds were measured for their ability to modulate positively or negatively the action of EC50 EGF on reporter gene activity. […]
Inconclusive results are not listed. The source made the active and inactive calls. The call rests on the fitted dose curve; in most records, active means well fitted curve in either direction with a large enough effect (not every such curve was filed as active); inconclusive means small, poorly fitted or top-dose-only effect, or another doubt; inactive means flat fitted curve, though single readings scatter.
Attribute Measured: activity change, negative = inhibition

{"Molecule": "c1cncc(CNc2ncn[nH]2)c1", "Attribute Measured": "activity change, negative = inhibition", "Measured": "12.7% (inactive)"}
{"Molecule": "Cc1ccc2nc(CC(=O)c3ccc4ccccc4c3)c(=O)[nH]c2c1", "Attribute Measured": "activity change, negative = inhibition", "Measured": "6.36% (inactive)"}

Challenge: activity change, negative = inhibition for C=C[C@]1(C)C[C@H](OC(=O)CO)[C@]2(C)C3C(=O)CC[C@]3(CC[C@H]2C)[C@H](C)[C@H]1O (stereo partly specified) ?
Response given: -0.357% (inactive)

Challenge: Fill blank: measured activity change, negative = inhibition of the molecule `COC(=O)N1CCC2(CCCN(Cc3cc(C(F)(F)F)cc(C(F)(F)F)c3)C2)CC1` is ____.
Response given: 12% (inactive)

Challenge: Reported activity change, negative = inhibition for `N[C@@H](Cc1cccnn1)C(=O)O` : what is it?
Response given: 2.23% (inactive)

Challenge: Fill blank: measured activity change, negative = inhibition of the molecule `C[C@@]12CCC(=O)C=C1CC[C@H]1[C@H]3CC[C@](O)(C(=O)CO)[C@]3(C)CC[C@@H]12` is ____.
Response given: 16% [at 38 µM] (inactive)
